- assay_remarks: Chrom logD assay
- Assay type: physicochemical
- conditions: reversed phase HPLC column (Gemini NX C18), pH 7.4; read-out: Log D
Non-standard residues stand in square brackets, D forms with d. Residues, ends and D or L forms follow the SMILES beside them. dPhe(4-Cl) = N[C@H](Cc1ccc(Cl)cc1)C(=O)O; NMeL = CN[C@@H](CC(C)C)C(=O)O; NMeV = CN[C@H](C(=O)O)C(C)C; dOrn = NCCC[C@@H](N)C(=O)O
Labelling field: enter 1 if recorded chromatographic logD is less than 2. Enter -1 if it equals or exceeds that cut-off.

>  <compound>
CC(C)C[C@H]1NC(=O)[C@@H](Cc2ccc(Cl)cc2)NC(=O)[C@H](Cc2c[nH]c3ccccc23)NC(=O)[C@@H](CCCN)NC(=O)[C@H](CC(N)=O)NC(=O)[C@H](C(C)C)NC1=O [Compound 17c] (cyclo(N[dOrn]W[dPhe(4-Cl)][dL]V))

>  <label>
-1

$$$$

Ask | Here's an entry: CC(C)C[C@H]1NC(=O)[C@H](CC(C)C)N(C)C(=O)[C@H](Cc2c[nH]c3ccccc23)NC(=O)[C@@H](CCCN)NC(=O)[C@H](CC(N)=O)NC(=O)[C@H](C(C)C)N(C)C1=O [Compound 24c] (cyclo(N[dOrn]W[NMeL][dL][NMeV])) . Is its chromatographic logD below 2?
Reply | -1

* * *

- assay_remarks: Intrinsic clearance (CLint) assay, mouse liver microsomes
- Format: in vitro ADME
- conditions: mouse, pooled mouse liver microsomes, pH 7.4; read-out: Microsomal t1/2 Mouse
Non-standard residues stand in square brackets, D forms with d. Residues, ends and D or L forms follow the SMILES beside them. dPhe(4-Cl) = N[C@H](Cc1ccc(Cl)cc1)C(=O)O; NMeN = CN[C@@H](CC(N)=O)C(=O)O; NMeL = CN[C@@H](CC(C)C)C(=O)O; dNMeL = CN[C@H](CC(C)C)C(=O)O; NMeV = CN[C@H](C(=O)O)C(C)C; dOrn = NCCC[C@@H](N)C(=O)O
half-life at 0.5 µM for assorted molecules

# example entries with known answers
>  <molecule>
CC[C@H](C)[C@@H]1NC(=O)[C@@H](CC(C)C)NC(=O)[C@H](CC(C)C)NC(=O)[C@H](Cc2c[nH]c3ccccc23)NC(=O)[C@@H](CCCN)NC(=O)[C@H](CC(N)=O)NC1=O [Compound 7c] (cyclo(IN[dOrn]WL[dL]))

>  <half-life at 0.5 µM>
> 139 min

$$$$
>  <molecule>
CC(C)C[C@@H]1NC(=O)[C@@H](CC(C)C)NC(=O)[C@@H](CCCN)NC(=O)[C@H](CC(N)=O)NC(=O)[C@H](C(C)C)NC(=O)[C@H](Cc2c[nH]c3ccccc23)NC1=O [Compound 21c] (cyclo(LWVN[dOrn][dL]))

>  <half-life at 0.5 µM>
> 139 min

$$$$
>  <molecule>
CC(C)C[C@@H]1NC(=O)[C@H](Cc2c[nH]c3ccccc23)NC(=O)[C@@H](CCCN)NC(=O)[C@H](CC(N)=O)NC(=O)[C@H](C(C)C)N(C)C(=O)[C@@H](CC(C)C)NC1=O [Compound 22c] (cyclo(L[dL][NMeV]N[dOrn]W))

>  <half-life at 0.5 µM>
> 139 min

$$$$

get_value(item= CC(C)C[C@@H]1NC(=O)[C@H](Cc2c[nH]c3ccccc23)NC(=O)[C@@H](CCCN)NC(=O)[C@H](CC(N)=O)NC(=O)[C@H](C(C)C)NC(=O)[C@@H](Cc2ccc(Cl)cc2)NC1=O [Compound 16c] (cyclo(L[dPhe(4-Cl)]VN[dOrn]W)) , readout=half-life at 0.5 µM) returns 113 min

get_value(item= CC(C)C[C@@H]1NC(=O)[C@H](Cc2c[nH]c3ccccc23)NC(=O)[C@@H](CCCN)NC(=O)[C@H](CC(N)=O)N(C)C(=O)[C@H](C(C)C)NC(=O)[C@@H](CC(C)C)N(C)C1=O [Compound 25c] (cyclo(L[dNMeL]V[NMeN][dOrn]W)) , readout=half-life at 0.5 µM) returns > 139 min

get_value(item= CC(C)C[C@H]1NC(=O)[C@H](CC(C)C)N(C)C(=O)[C@H](Cc2c[nH]c3ccccc23)NC(=O)[C@@H](CCCN)NC(=O)[C@H](CC(N)=O)N(C)C(=O)[C@H](C(C)C)NC1=O [Compound 23c] (cyclo([NMeL][dL]V[NMeN][dOrn]W)) , readout=half-life at 0.5 µM) returns 63 min

get_value(item= CC[C@H](C)[C@@H]1NC(=O)[C@H](CC(C)C)NC(=O)[C@H](Cc2c[nH]c3ccccc23)NC(=O)[C@@H](CCCN)NC(=O)[C@H](CC(N)=O)NC(=O)[C@H](C(C)C)NC1=O [Compound 20c] (cyclo(IVN[dOrn]WL)) , readout=half-life at 0.5 µM) returns > 139 min

get_value(item= CC(C)C[C@@H]1NC(=O)[C@H](C)NC(=O)[C@@H](CCCN)NC(=O)[C@H](CC(N)=O)NC(=O)[C@H](C(C)C)NC(=O)[C@@H](CC(C)C)NC1=O [Compound 3c] (cyclo(AL[dL]VN[dOrn])) , readout=half-life at 0.5 µM) returns > 139 min
